ASSAY_PROTOCOL: Selectivity index, ratio of IC50 for Cytotoxicity against CHO cells assessed as inhibition of cell viability by MTT assay to IC50 for antimalarial activity against asexual blood stage Plasmodium falciparum NF54 assessed as reduction in parasitemia incubated up to 72 hrs by [3H]hypoxanthine incorporation assay
Format: toxicity, cell-based
TEST_CONTEXT: hamster, read-out: Selectivity Index
So basically: selectivity ratio at 72 h at 30 or higher? That is satisfied. Lower than 30? That is not satisfied.

[
  {
    "SMILES_STRUCTURE": "CCN(CC)Cc1cccc(Nc2nc3ccccc3n2Cc2ccc(C(F)(F)F)cc2)c1O",
    "ASSIGNED_CATEGORY": "satisfied"
  },
  {
    "SMILES_STRUCTURE": "Cc1cc(CNC(C)(C)C)c(O)c(Nc2nc3c(Cl)cc(Cl)cc3[nH]2)c1",
    "ASSIGNED_CATEGORY": "satisfied"
  },
  {
    "SMILES_STRUCTURE": "Cc1cc(CNC(C)(C)C)c(O)c(Nc2nc3cc(F)c(F)cc3n2Cc2ccc(C(F)(F)F)cc2)c1",
    "ASSIGNED_CATEGORY": "satisfied"
  },
  {
    "SMILES_STRUCTURE": "CCNCc1cc(Cl)cc(Nc2nc3ccccc3[nH]2)c1O",
    "ASSIGNED_CATEGORY": "satisfied"
  },
  {
    "SMILES_STRUCTURE": "CCN(CC)Cc1cc(C)cc(Nc2nc3ccccc3n2Cc2ccc(F)cc2)c1O",
    "ASSIGNED_CATEGORY": "satisfied"
  },
  {
    "SMILES_STRUCTURE": "CCN(CC)Cc1cccc(Nc2nc3ccccc3n2Cc2ccc(C#N)cc2)c1O",
    "ASSIGNED_CATEGORY": "satisfied"
  },
  {
    "SMILES_STRUCTURE": "CCN(CC)Cc1cc(F)cc(Nc2nc3ccccc3n2Cc2ccc(C(F)(F)F)cc2)c1O",
    "ASSIGNED_CATEGORY": "satisfied"
  },
  {
    "SMILES_STRUCTURE": "CCN(CC)Cc1cc(Nc2nc3ccccc3n2Cc2ccc(C#N)cc2)ccc1O",
    "ASSIGNED_CATEGORY": "satisfied"
  },
  {
    "SMILES_STRUCTURE": "CCN(CC)Cc1ccc(Nc2nc3ccccc3n2Cc2ccc(C#N)cc2)cc1O",
    "ASSIGNED_CATEGORY": "satisfied"
  },
  {
    "SMILES_STRUCTURE": "CCN(CC)Cc1ccc(Nc2nc3ccccc3n2Cc2ccc(F)cc2)cc1O",
    "ASSIGNED_CATEGORY": "satisfied"
  },
  {
    "SMILES_STRUCTURE": "CCN(CC)Cc1ccc(C)c(Nc2nc3ccccc3n2Cc2ccc(C(F)(F)F)cc2)c1O",
    "ASSIGNED_CATEGORY": "not satisfied"
  },
  {
    "SMILES_STRUCTURE": "CCNCc1cc(C)cc(Nc2nc3ccccc3n2Cc2ccc(C(F)(F)F)cc2)c1O",
    "ASSIGNED_CATEGORY": "not satisfied"
  },
  {
    "SMILES_STRUCTURE": "CC(C)(C)NCc1cc(Cl)cc(Nc2nc3ccccc3[nH]2)c1O",
    "ASSIGNED_CATEGORY": "satisfied"
  }
]

Reference source for all entries: ChEMBL document CHEMBL4834426
